tested on: Liver; test: Intrinsic clearance in mouse liver microsomes; format: ADME, Microsome
Rule: Intrinsic clearance under 60 µL/min/mg gives n, otherwise y.

CHEMICAL_STRUCTURE: CCc1nc2nc(C)cc(Nc3cccc(Cl)c3)n2n1
LABEL: y

CHEMICAL_STRUCTURE: COCCc1nc2nc(C)cc(Nc3ccc(S(F)(F)(F)(F)F)cc3)n2n1
LABEL: n

CHEMICAL_STRUCTURE: Cc1cc(Nc2ccc(C(F)(F)F)cc2)n2nc(C3CC3)nc2n1
LABEL: n

CHEMICAL_STRUCTURE: Cc1cc(Nc2ccc(Cl)cc2)n2nc(C(C)(F)F)nc2n1
LABEL: y

CHEMICAL_STRUCTURE: COCc1nc2nc(C)cc(Nc3ccc(S(F)(F)(F)(F)F)cc3)n2n1
LABEL: n

CHEMICAL_STRUCTURE: Cc1cc(Nc2ccc(S(F)(F)(F)(F)F)cc2)n2nc(C(F)(F)F)nc2n1
LABEL: n

* * *

tested on: Liver microsomes; assay: Intrinsic clearance in human liver microsomes; format: ADME, Microsome
PARAMETER: Intrinsic clearance

CHEMICAL_STRUCTURE: Cc1cc(Nc2ccc(S(F)(F)(F)(F)F)cc2)n2nc(C(F)(F)F)nc2n1
ASSAY_VALUE: < 5 µL/min/mg
--
CHEMICAL_STRUCTURE: Cc1cc(Nc2ccc(C(F)(F)F)cc2)n2nc(C3CC3)nc2n1
ASSAY_VALUE: < 5 µL/min/mg
--
CHEMICAL_STRUCTURE: Cc1cc(Nc2ccc(S(F)(F)(F)(F)F)cc2)n2nc(C3CC3)nc2n1
ASSAY_VALUE: < 5 µL/min/mg

* * *

In this section we review reported logD values for a set of compounds.
test: Lipophilicity, log D of the compound at pH 7.4; format: physicochemical; settings: buffer

CHEMICAL_STRUCTURE: Cc1cc(Nc2cccc(Cl)c2)n2nc(C(C)(F)F)nc2n1
logD: 3

CHEMICAL_STRUCTURE: Cc1cc(Nc2ccc(Cl)cc2)n2nc(C(C)(F)F)nc2n1
logD: 3

CHEMICAL_STRUCTURE: COCCc1nc2nc(C)cc(Nc3ccc(S(F)(F)(F)(F)F)cc3)n2n1
logD: 3

* * *

Let's look at some molecules and their measured PPB.
test system: Plasma; assay: Plasma protein binding in human by chromatographic method; type: ADME, cell-free

CHEMICAL_STRUCTURE: CCc1nc2nc(C)cc(Nc3ccc(C(F)(F)F)cc3)n2n1
MEASURED_ON: Plasma
PPB, %: 87.5
//
CHEMICAL_STRUCTURE: CCc1nc2nc(C)cc(Nc3ccc(Cl)cc3)n2n1
MEASURED_ON: Plasma
PPB, %: 86.1
//
CHEMICAL_STRUCTURE: Cc1cc(Nc2ccc(C(F)(F)F)cc2)n2nc(C3CC3)nc2n1
MEASURED_ON: Plasma
PPB, %: 92.8
//
CHEMICAL_STRUCTURE: CCOc1nc2nc(C)cc(Nc3ccc(C(F)(F)F)cc3)n2n1
MEASURED_ON: Plasma
PPB, %: 92.4
//
CHEMICAL_STRUCTURE: COCCc1nc2nc(C)cc(Nc3ccc(C(F)(F)F)cc3)n2n1
MEASURED_ON: Plasma
PPB, %: 73.7
//
CHEMICAL_STRUCTURE: COCCc1nc2nc(C)cc(Nc3ccc(S(F)(F)(F)(F)F)cc3)n2n1
MEASURED_ON: Plasma
PPB, %: 87.7
//
CHEMICAL_STRUCTURE: Cc1cc(Nc2ccc(Cl)cc2)n2nc(C(C)C)nc2n1
MEASURED_ON: Plasma
PPB, %: 84.9

Ref: ChEMBL document CHEMBL1955725
